System: MCF7 breast
Assay: NCI tumour cell line growth inhibition, 48 h
reported-endpoint: TGI

INSERT INTO measurements (compound, assayed_target, recorded_value) VALUES
  ('O=C1CCc2ccccc2O1', 'MCF7 breast', '> 100 µM'),
  ('COc1cccc(/C=C2\CCc3ccccc3C2=O)c1', 'MCF7 breast', '17.8 µM'),
  ('COCC1N=C(c2cc(OC)c(OC)c(OC)c2-c2cc3c(cc2[C@@H](C)O)OCO3)O[C@H]1c1ccccc1 (stereo partly drawn)', 'MCF7 breast', '> 100 µM');

###

Each entry below carries its reported TGI.
Tested on: OVCAR-8 ovarian
Assay: NCI tumour cell line growth inhibition, 48 h
reported-endpoint: TGI

INSERT INTO measurements (compound, recorded_value) VALUES
  ('COC(=O)CN(CC1O[C@@H]2OC(C)(C)O[C@@H]2C1NC(C)=O)C(=O)OCc1ccccc1 (some centres not stated)', '> 100 µM'),
  ('c1ccc(N2N=NC3C4CC(C5c6ccccc6C45)C32)cc1 (configuration not stated)', '> 100 µM'),
  ('CCOC(=O)Nc1cc(-c2ccc(C)c(NS(C)(=O)=O)c2)nn2c(C)nnc12', '> 100 µM'),
  ('COc1cccc2c1C(=O)c1c(O)c3c(c(O)c1C2=O)CC(O)(C(C)=O)CC3O (configuration not stated)', '10.6 µM'),
  ('COC(=O)[C@H](C)[C@@H]1CC[C@](C)(CCC2=C(C)CCCC2(C)C)OO1', '> 25 µM'),
  ('COc1cccc(/C=N/NC(=O)CN(C)C)c1O', '> 100 µM'),
  ('O=C(CC1(O)C(=O)Nc2ccc([N+](=O)[O-])cc21)c1ccc(Br)cc1 (configuration not stated)', '> 100 µM');

###

This listing pairs molecules with measured TGI.
Tested on: M14 melanoma
Test: NCI tumour cell line growth inhibition, 48 h
reported-endpoint: TGI

INSERT INTO measurements (molecule, recorded_value) VALUES
  ('Nc1ccn(CCCC(c2ccccc2)P(=O)(O)O)c(=O)n1 (stereo unspecified)', '> 100 µM'),
  ('CC(C)=Cc1cc(C(=O)NCCNC(=O)c2cc(C=C(C)C)nc(NC#N)n2)nc(NC#N)n1', '> 100 µM'),
  ('COc1cc(/C=C/c2ccc(S(N)(=O)=O)cc2)cc(OC)c1', '> 100 µM'),
  ('COc1ccc(NC(=O)C2=CC(=O)c3ccc(O)cc3C2=O)c(OC)c1', '> 100 µM'),
  ('O=C(NCCCc1cn[nH]c(=O)n1)c1cccc2nc3ccccc3nc12', '> 100 µM'),
  ('NC(CSC1(c2ccc(Cl)cc2)c2ccccc2-c2ccccc21)C(=O)O (stereo unspecified)', '68.4 µM'),
  ('C1=CC(=NN=P(c2ccccc2)(c2ccccc2)c2ccccc2)C=C1', '> 100 µM'),
  ('CCC1OC(=O)CC(O)C(C)C(OC2OC(C)CC(N(C)C)C2O)C(CC=O)CC(C)C(=O)/C=C/C2(C)OC2C1C (stereo unspecified)', '> 100 µM'),
  ('O=[P+](O)c1cccnc1', '> 100 µM'),
  ('O=C(c1cccnc1)N1N=C(c2ccc3c(c2)OCO3)CC1(O)c1cc(F)c(Cl)cc1Cl (stereo unspecified)', '> 100 µM'),
  ('Cc1nc(-n2nc(-c3ccccc3)cc2-c2ccccc2)sc1C(/C=C/c1ccc([N+](=O)[O-])cc1)=N/NC(N)=S', '> 100 µM'),
  ('CCOC(=O)C(NC(=O)c1ccccc1)(Nc1ccc(S(=O)(=O)Nc2ccc(OC)nn2)cc1)C(F)(F)F (stereo unspecified)', '> 100 µM'),
  ('COc1c(OC)c(OC)c(-c2cc(=O)c3c(OC)c(OC)c(OC)c(OC)c3o2)c(OC)c1OC', '> 100 µM'),
  ('COc1ccc(Oc2nc3c(N)cc(C(F)(F)F)cc3nc2-c2ccccc2)cc1', '41.3 µM'),
  ('COC(=O)[C@H](C)[C@@H]1CC[C@](C)(CCC2=C(C)CCCC2(C)C)OO1', '> 25 µM'),
  ('COC(=O)Cc1nn2c(nc1=O)sc1ccc3ccccc3c12', '> 100 µM'),
  ('CNC(=O)c1cc(Oc2cccc3nc(NC(=O)Nc4ccc(F)cc4F)ccc23)ccn1', '> 50 µM'),
  ('COc1cc(C(=O)N(C(=O)N2CCCCC2)c2ccccc2)cc(OC)c1OC', '> 100 µM'),
  ('CCCCc1c2c(nc3c1CCCC3=O)CCCC2', '> 100 µM'),
  ('C/C(CC(=O)Nc1cccc(C)c1C)=N\NC(N)=S', '> 100 µM'),
  ('O=P(Nc1cccc(Cl)c1)(Oc1ccccc1)N(CCCl)CCCl (stereo unspecified)', '28.6 µM');

Numbers sourced from PubChem BioAssay (NCI).
